experiment: Particle size and PDI of nucleic acid lipid nanoparticle preparations by dynamic light scattering; type: physicochemical; conditions: DMG-PEG2000:DSPC:Chol:compound 1.40:11.15:38.95:48.50, N/P 30
attribute-measured: PDI

For every item in the list below, what is its measured PDI?
1. CCCCCCCCCCCCNC(=O)C(O)CNCCCN(C)CCCN(CC(O)C(=O)NCCCCCCCCCCCC)CC(O)C(=O)NCCCCCCCCCCCC (stereo not drawn)
2. CCCCCCCCCCOC(=O)C(O)CN(CCCN(CC(O)C(=O)OCCCCCCCCCC)CC(O)C(=O)OCCCCCCCCCC)CCCN(CC(O)C(=O)OCCCCCCCCCC)CC(O)C(=O)OCCCCCCCCCC (stereo not drawn)
3. CCCCCCCCCCCCCCOC(=O)C(O)CN(CCN(C)CCN(CC(O)C(=O)OCCCCCCCCCCCCCC)CC(O)C(=O)OCCCCCCCCCCCCCC)CC(O)C(=O)OCCCCCCCCCCCCCC (stereo not drawn)

0.12
0.15
0.22

###

tested on: mice; assay: In vivo delivery of FLuc-mRNA lipid nanoparticles in mice, in vivo imaging (IVIS); conditions: IV, organ not given; DMG-PEG2000:DSPC:Chol:compound 1.40:11.15:38.95:48.50, N/P 20; Fluc-mRNA
attribute-measured: IVIS

# count of solved cases: 2
1. CCCCCCCCCCCCNC(=O)C(O)CN(CCOCCN(CC(O)C(=O)NCCCCCCCCCCCC)CC(O)C(=O)NCCCCCCCCCCCC)CC(O)C(=O)NCCCCCCCCCCCC (stereo not drawn) [Compound L0306] ... 7.90E+06
2. CCCCCCCCCCOC(=O)C(O)CN(CCCCCN(CC(O)C(=O)OCCCCCCCCCC)CC(O)C(=O)OCCCCCCCCCC)CC(O)C(=O)OCCCCCCCCCC (stereo not drawn) [Compound L0318] ... 2.09E+05

Query: IVIS; subject: CCCCCCCCCCCCNC(=O)C(O)CN(CCCCCCCN(CC(O)C(=O)NCCCCCCCCCCCC)CC(O)C(=O)NCCCCCCCCCCCC)CC(O)C(=O)NCCCCCCCCCCCC (stereo not drawn) [Compound L0308]
1.99E+05

###

Would you mind telling me the reported IVIS of each entry?
test system: mice; assay: In vivo delivery of FLuc-mRNA lipid nanoparticles in mice, in vivo imaging (IVIS); conditions: IV, spleen; DMG-PEG2000:DSPC:Chol:compound 1.40:11.15:38.95:48.50, N/P 30; Fluc-mRNA
Numbers only.

# count of solved cases: 3
1. CCCCCCOC(C)OCCCCCCOC(=O)C(O)CN(CCCN(CC(O)C(=O)OCCCCCCOC(C)OCCCCCC)CC(O)C(=O)OCCCCCCOC(C)OCCCCCC)CCCN(CC(O)C(=O)OCCCCCCOC(C)OCCCCCC)CC(O)C(=O)OCCCCCCOC(C)OCCCCCC (stereo not shown) [Compound L0340] ... 1.42E+07
2. CCCCCCC(CCCCCC)C(=O)OCCCCCCOC(=O)C(O)CN(CCN(C)CCN(CC(O)C(=O)OCCCCCCOC(=O)C(CCCCCC)CCCCCC)CC(O)C(=O)OCCCCCCOC(=O)C(CCCCCC)CCCCCC)CC(O)C(=O)OCCCCCCOC(=O)C(CCCCCC)CCCCCC (stereo not shown) [Compound L0336] ... 2.65E+07
3. CCCCCCCC/C=C\CCCCCCCCNC(=O)C(O)CN(CCCN(C)CCCN(CC(O)C(=O)NCCCCCCCC/C=C\CCCCCCCC)CC(O)C(=O)NCCCCCCCC/C=C\CCCCCCCC)CC(O)C(=O)NCCCCCCCC/C=C\CCCCCCCC (stereo not shown) [Compound L0317] ... 1.51E+07

Moving on to another compound below.
Query: IVIS; subject: CCCC/C=C\CCOCOCCCCOC(=O)C(O)CN(CCN(C)CCN(CC(O)C(=O)OCCCCOCOCC/C=C\CCCC)CC(O)C(=O)OCCCCOCOCC/C=C\CCCC)CC(O)C(=O)OCCCCOCOCC/C=C\CCCC (stereo not shown) [Compound L0335]
3.05E+07

###

test system: mice; assay: In vivo delivery of FLuc-mRNA lipid nanoparticles in mice, in vivo imaging (IVIS); conditions: Fluc-mRNA LNP; route IV; organ: lung; formulation, molar ratio and N/P as in the table
Would you mind telling me the reported % of organ targeting of each entry?
Record the result as number plus unit.

For every item in the list below, what is its measured % of organ targeting?
1. CCCCCCCC(CCCCCCC)OC(=O)CCCNC(=O)C(O)CN(CCCN(C)CCCN(CC(O)C(=O)NCCCC(=O)OC(CCCCCCC)CCCCCCC)CC(O)C(=O)NCCCC(=O)OC(CCCCCCC)CCCCCCC)CC(O)C(=O)NCCCC(=O)OC(CCCCCCC)CCCCCCC (stereo not shown)
2. CCCCCCC(CCCCCC)C(=O)OCCCCNC(=O)C(O)CN(CCCN(CC(O)C(=O)NCCCCOC(=O)C(CCCCCC)CCCCCC)CC(O)C(=O)NCCCCOC(=O)C(CCCCCC)CCCCCC)CCCN(CC(O)C(=O)NCCCCOC(=O)C(CCCCCC)CCCCCC)CC(O)C(=O)NCCCCOC(=O)C(CCCCCC)CCCCCC (stereo not shown)
3. CCCCCCCCCCN(C)C(=O)C(O)CN(CCCN(CC(O)C(=O)N(C)CCCCCCCCCC)CC(O)C(=O)N(C)CCCCCCCCCC)CCCN(CC(O)C(=O)N(C)CCCCCCCCCC)CC(O)C(=O)N(C)CCCCCCCCCC (stereo not shown)
4. CCCCCCC(CCCCCC)C(=O)NCCNC(=O)C(O)CN(CCCN(CC(O)C(=O)NCCNC(=O)C(CCCCCC)CCCCCC)CC(O)C(=O)NCCNC(=O)C(CCCCCC)CCCCCC)CCCN(CC(O)C(=O)NCCNC(=O)C(CCCCCC)CCCCCC)CC(O)C(=O)NCCNC(=O)C(CCCCCC)CCCCCC (stereo not shown)

9.82%
0.75%
2.97%
0.46%

###

tested on: mice; assay: In vivo delivery of FLuc-mRNA lipid nanoparticles in mice, in vivo imaging (IVIS); details: Fluc-mRNA LNP; route IV; organ: lung; formulation, molar ratio and N/P as in the table
attribute-measured: IVIS
Numbers only.

# count of solved cases: 3
1. CCCCCCCCN(C)C(=O)C(O)CN(CCCN(C)CCCN(CC(O)C(=O)N(C)CCCCCCCC)CC(O)C(=O)N(C)CCCCCCCC)CC(O)C(=O)N(C)CCCCCCCC (stereo not shown) [Compound L0350] ... 2.99E+07
2. CCCCCCCCC(CCCCCC)C(=O)OCCCCCCNC(=O)C(O)CN(CCCN(C)CCCN(CC(O)C(=O)NCCCCCCOC(=O)C(CCCCCC)CCCCCCCC)CC(O)C(=O)NCCCCCCOC(=O)C(CCCCCC)CCCCCCCC)CC(O)C(=O)NCCCCCCOC(=O)C(CCCCCC)CCCCCCCC (stereo not shown) [Compound L0370] ... 3.34E+06
3. CCCCCCC(CCCCCC)C(=O)NCCOC(=O)C(O)CN(CCCN(CC(O)C(=O)OCCNC(=O)C(CCCCCC)CCCCCC)CC(O)C(=O)OCCNC(=O)C(CCCCCC)CCCCCC)CCCN(CC(O)C(=O)OCCNC(=O)C(CCCCCC)CCCCCC)CC(O)C(=O)OCCNC(=O)C(CCCCCC)CCCCCC (stereo not shown) [Compound L0363] ... 4.56E+06

Moving on to another compound below.
Query: IVIS; subject: CCCCCCCCN(C)C(=O)C(O)CN(CCCN(CC(O)C(=O)N(C)CCCCCCCC)CC(O)C(=O)N(C)CCCCCCCC)CCCN(CC(O)C(=O)N(C)CCCCCCCC)CC(O)C(=O)N(C)CCCCCCCC (stereo not shown) [Compound L0354]
9.31E+05

###

Would you mind telling me the reported % of organ targeting of each entry?
system: mice; assay: In vivo delivery of FLuc-mRNA lipid nanoparticles in mice, in vivo imaging (IVIS); settings: IV, lung; DMG-PEG2000:DSPC:Chol:compound 1.40:11.15:38.95:48.50, N/P 30
Give bare numbers, in %.

1. CCCCCCCC/C=C\CCCCCCCCNC(=O)C(O)CN(CCCN(C)CCCN(CC(O)C(=O)NCCCCCCCC/C=C\CCCCCCCC)CC(O)C(=O)NCCCCCCCC/C=C\CCCCCCCC)CC(O)C(=O)NCCCCCCCC/C=C\CCCCCCCC (centres unmarked) ... 79.76
2. CCCCCCCCCCCCCCOC(=O)C(O)CN(CCN(C)CCN(CC(O)C(=O)OCCCCCCCCCCCCCC)CC(O)C(=O)OCCCCCCCCCCCCCC)CC(O)C(=O)OCCCCCCCCCCCCCC (centres unmarked) ... 3.68
3. CCCC/C=C\CCOCOCCCCOC(=O)C(O)CN(CCN(C)CCN(CC(O)C(=O)OCCCCOCOCC/C=C\CCCC)CC(O)C(=O)OCCCCOCOCC/C=C\CCCC)CC(O)C(=O)OCCCCOCOCC/C=C\CCCC (centres unmarked) ... 2.72
4. CCCCCCCCCCCCNC(=O)C(O)CNCCCN(C)CCCN(CC(O)C(=O)NCCCCCCCCCCCC)CC(O)C(=O)NCCCCCCCCCCCC (centres unmarked) ... 78.38

Moving on to another molecule below.
Query: % of organ targeting; subject: CCCCCCCC/C=C\CCCCCCCCNC(=O)C(O)CN(CCN(C)CCN(CC(O)C(=O)NCCCCCCCC/C=C\CCCCCCCC)CC(O)C(=O)NCCCCCCCC/C=C\CCCCCCCC)CC(O)C(=O)NCCCCCCCC/C=C\CCCCCCCC (centres unmarked)
41.60
